# target_entity: T1, Human ROBO2 overexpressed on HEK293 cells (human, UniProt Q9HCK4 22-1378)
# T1 construct: also called ROBO2 cells; native ROBO2
# T1 sequence: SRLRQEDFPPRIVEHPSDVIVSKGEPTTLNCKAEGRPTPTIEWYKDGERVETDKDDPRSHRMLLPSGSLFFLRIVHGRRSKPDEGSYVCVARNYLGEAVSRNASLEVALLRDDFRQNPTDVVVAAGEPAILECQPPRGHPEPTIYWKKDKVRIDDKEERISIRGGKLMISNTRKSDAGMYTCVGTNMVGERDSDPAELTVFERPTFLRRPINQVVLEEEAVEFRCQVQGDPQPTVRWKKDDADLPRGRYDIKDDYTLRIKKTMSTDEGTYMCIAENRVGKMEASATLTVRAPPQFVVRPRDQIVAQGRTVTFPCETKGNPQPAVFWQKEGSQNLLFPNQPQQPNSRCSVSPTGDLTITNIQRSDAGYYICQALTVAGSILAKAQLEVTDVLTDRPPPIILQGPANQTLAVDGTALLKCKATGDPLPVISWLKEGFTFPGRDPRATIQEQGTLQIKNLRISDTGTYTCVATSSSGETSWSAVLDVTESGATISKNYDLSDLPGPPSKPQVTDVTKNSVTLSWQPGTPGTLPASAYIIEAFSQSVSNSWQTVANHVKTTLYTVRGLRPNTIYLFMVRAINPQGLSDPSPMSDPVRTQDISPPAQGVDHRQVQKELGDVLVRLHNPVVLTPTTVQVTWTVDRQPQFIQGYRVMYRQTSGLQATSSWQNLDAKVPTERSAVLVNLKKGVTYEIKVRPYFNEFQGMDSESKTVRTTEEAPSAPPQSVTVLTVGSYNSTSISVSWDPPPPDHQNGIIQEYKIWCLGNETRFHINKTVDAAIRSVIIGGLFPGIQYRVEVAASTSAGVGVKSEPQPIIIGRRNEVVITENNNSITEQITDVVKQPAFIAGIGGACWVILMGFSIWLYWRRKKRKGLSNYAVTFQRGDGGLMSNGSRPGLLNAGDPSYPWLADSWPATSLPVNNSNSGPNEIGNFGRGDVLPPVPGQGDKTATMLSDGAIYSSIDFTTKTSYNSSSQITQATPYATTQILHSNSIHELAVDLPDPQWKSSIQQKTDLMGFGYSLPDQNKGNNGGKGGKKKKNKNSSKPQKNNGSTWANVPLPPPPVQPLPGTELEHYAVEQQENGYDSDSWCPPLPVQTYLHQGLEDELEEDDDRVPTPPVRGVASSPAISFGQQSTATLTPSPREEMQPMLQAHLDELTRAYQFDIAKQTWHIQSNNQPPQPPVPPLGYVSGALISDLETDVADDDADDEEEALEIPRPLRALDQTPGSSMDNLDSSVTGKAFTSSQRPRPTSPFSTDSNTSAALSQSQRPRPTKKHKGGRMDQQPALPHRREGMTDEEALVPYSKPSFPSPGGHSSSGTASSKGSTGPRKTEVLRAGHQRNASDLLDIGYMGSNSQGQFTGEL
# experimental_details: flow cytometry, Geo MFI ROBO2/ROBO1 HEK293 cells, 0.1 µg/ml
value_type: Fold Selectivity for ROBO2/ROBO1

[[record]]
binder = "Ab123 (antibody, human IgG1, kappa, V domains shown, full-length human IgG) VH: EVQLVQSGAEVKKPGASVKVSCKASGYTFTGYYMHWVRQAPGQGLEWMGWINPNSGATNFPQKFQGRVTMTRDTSITTAYMDLSRLRSDDTAVYYCARESGDDAFDIWGQGTMVTVSS VL: DIVMTQSPSSLSASVGDRVTITCRASQSISSYLNWYQQKPGKAPKLLIYAASSLQSGVPSRFSGSGSGTDFTLTISSLQPEDFATYYCQQSVGLFFGGGTKVEIKR"
value_type = "Fold Selectivity for ROBO2/ROBO1"
obs_value = "80.5 fold"


Input line: Return reported Fold Selectivity for ROBO2/ROBO1. Input binder: Ab40 (antibody, human IgG1, kappa, V domains shown, full-length human IgG) VH: EVQLVQSGAEVKKPGASVKVSCKASGYTFTGYYMHWVRQAPGQGLEWMGWINPNSGATNFPQKFQGRVTMTRDTSITTAYMDLSRLRSDDTAVYYCARESGDDAFDIWGQGTMVTVSS VL: DIVMTQSPSSLSASVGDRVTITCRASQSISSYLNWYQQKPGKAPKLLIYAASSLQSGVPSRFSGSGSGTDFTLTISSLQPEDFATYYCQQSLELGFGGGTKVEIKR
Output line: > 100 fold
